I'd be grateful if you could share measured inhibition for these entries.
protocol: antivirals against arbovirus infection, primary screen, cell-based, full library, 10K replicate subset (AID 1251)
settings: arbovirus infection cell-based antiviral screen; measured here: 10K subset replicate screen; at 10 µM; stronger effect = higher value
About 720 (0.36%) of roughly 200,000 compounds were called active. The sample holds actives, similar compounds and a random draw of the others, so the mix is not that of the screen.
Answer format: value, then unit.

Query string: Given the compound COc1cccc(NC(=O)Nc2nnc(N3CCCCC3C)s2)c1 (centres undefined) , write its reported inhibition.
Result string: 24.8%

Query string: Given the compound Cc1nnc(SCC(=O)NCc2ccccc2)s1 , write its reported inhibition.
Result string: 3.33%

Query string: Given the compound O=C(Nc1nc(-c2ccncc2)cs1)C1COc2ccccc2O1 (centres undefined) , write its reported inhibition.
Result string: 4.95%

Query string: Given the compound O=C(c1ccco1)N1CCN=C1SCc1cccc(Cl)c1 , write its reported inhibition.
Result string: 0.055%

Where these numbers come from: PubChem BioAssay AID1251
